Data origin, for the record: patent US12421254B2

tested_on: GST-tagged KRAS-G12D (2-169) (Homo sapiens, UniProt P01116, G12D)
Sequence (P01116 2-169 isoform P01116-2 G12D): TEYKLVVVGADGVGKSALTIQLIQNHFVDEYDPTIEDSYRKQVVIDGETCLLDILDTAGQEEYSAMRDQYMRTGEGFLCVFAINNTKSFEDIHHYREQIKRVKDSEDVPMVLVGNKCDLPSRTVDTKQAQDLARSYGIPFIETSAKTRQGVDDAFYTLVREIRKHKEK
assay_remarks: Nucleotide exchange assay (NEA), SOS-mediated, HTRF, KRAS G12D
Format: biochemical
experimental_conditions: Table 2; IC50 extracted at 30 min; 20 nM SOScat; read-out: NEA-G12D (uM) IC50
From the text: This activity is tightly regulated by GTPase activating proteins (GAPs) and guanine nucleotide exchange factors (GEFs). […] Homogenous time resolved fluorescence (HTRF) was used to detect SOS-mediated binding of a fluorescent GTP analog, GTP-DY-647P1 (Jena Biosciences NU-820-647P1) to GST-tagged KRAS-G12D (2-169) or to GST-tagged KRAS-G12V (2-169, Reaction Biology, MSC-11-540). […]
Listed next: entries and their corresponding IC50.
result_type: IC50

> print(dat)
                                   compound           value
1  CN(CC1(C#N)CC1)c1nc(OC[C@@]23CCCN2C[C@H](F)C3)nc(N2CC3(CCc4sc(N)c(C#N)c43)C2)n1 [Compound 15]     0.1 to 1 µM
2  N#Cc1c(N)sc(Cl)c1C1CCN(c2nc(OCC3(CN4CCOCC4)CC3)nc(N3C[C@H]4CC[C@@H](C3)N4)n2)C1 (stereo partly shown) [Compound 4]       < 0.01 µM
3  CC1(CO)CCCN(c2nc(OC[C@@]34CCCN3C[C@H](F)C4)nc(N3CC4(CCc5sc(N)c(C#N)c54)C3)n2)C1 (stereo partly shown) [Compound 18]  0.01 to 0.1 µM
4  N#Cc1c(N)sc2c1C1(CCC2)CN(c2nc(OCC3(CN4CCOCC4)CC3)nc(N3CCC[C@]4(C3)NC(=O)NC4=O)n2)C1 [Compound 6]  0.01 to 0.1 µM

====

tested_on: GST-tagged KRAS-G12D (2-169) (Homo sapiens, UniProt P01116, G12D)
assay_remarks: Nucleotide exchange assay (NEA), SOS-mediated, HTRF, KRAS G12D
Assay type: biochemical
experimental_conditions: Table 4; IC50 extracted at 30 min; 20 nM SOScat; read-out: NEA G12D IC50

molecule	IC50
CC(c1nsnc1N)N(C)c1nc(OC[C@@]23CCCN2C[C@H](F)C3)nc(N2CC3(CCc4sc(N)c(C#N)c43)C2)n1 (some centres unmarked)	10 to 100 nM
CC1(O)COCCN(c2nc(OCC3(CN4CCOCC4)CC3)nc(N3CC4(C3)SCc3sc(N)c(C#N)c34)n2)C1 (centres unmarked)	< 10 nM
CC1(CO)CCCN(c2nc(OC[C@@]34CCCN3C[C@H](F)C4)nc(N3CC4(CCc5sc(N)c(C#N)c54)C3)n2)C1 (some centres unmarked)	10 to 100 nM
N#Cc1c(N)sc2c1C1(CC2)CN(c2nc(OC[C@@]34CCCN3C[C@H](F)C4)nc(N3CCC4CC4(CO)C3)n2)C1 (some centres unmarked)	1000 to 20000 nM
C[C@H](c1cccnc1N)N(C)c1nc(OC[C@@]23CCCN2C[C@H](F)C3)nc(N2CCC3(CCCc4sc(N)c(C#N)c43)C2=O)n1 (single isomer, unassigned) [Compound 175A]	10 to 100 nM
N#Cc1c(N)sc2c1C1(CN(c3nc(OC[C@@]45CCCN4C[C@H](F)C5)nc(N4CC(O)NC(=O)C45CC5)n3)C1)SC2 (some centres unmarked)	< 10 nM
N#Cc1c(N)sc2c1C1(CN(c3nc(OC[C@@]45CCCN4C[C@H](F)C5)nc(N4CC(=O)Nc5ncccc5C4)n3)C1)SC2	100 to 1000 nM
Cc1ccc(C(C)N(C)c2nc(OC[C@@]34CCCN3C[C@H](F)C4)nc(N3CC4(C3)SCc3sc(N)c(C#N)c34)n2)c(N)n1 (some centres unmarked)	1000 to 20000 nM
N#Cc1c(N)sc2c1C1(CN(c3nc(OC[C@@]45CCCN4C[C@H](F)C5)nc(N4C5COCC4C5)n3)C1)SC2	100 to 1000 nM
CCN(c1nc(OC[C@@]23CCCN2C[C@H](F)C3)nc(N2CC3(C2)SCc2sc(N)c(C#N)c23)n1)[C@H](C)C(N)=O	< 10 nM
C[C@]1(CO)C[C@H](O)CN1c1nc(OC[C@@]23CCCN2C[C@H](F)C3)nc(N2CC3(CCc4sc(N)c(C#N)c43)C2)n1	100 to 1000 nM
CN(Cc1cncs1)c1nc(OC[C@@]23CCCN2C[C@H](F)C3)nc(N2CC3(CCc4sc(N)c(C#N)c43)C2)n1	1000 to 20000 nM
C#CC(C)N(CC#N)c1nc(OC[C@@]23CCCN2C[C@H](F)C3)nc(N2CC3(C2)SCc2sc(N)c(C#N)c23)n1 (some centres unmarked)	< 10 nM
CC(c1nccnc1N)N(C)c1nc(OC[C@@]23CCCN2C[C@H](F)C3)nc(N2CC3(C2)SCc2sc(N)c(C#N)c23)n1 (some centres unmarked)	< 10 nM
